# Tested on: NCI-H460
# EXPERIMENT SUMMARY: NCI tumour cell line growth inhibition, 48 h
Active and inactive are the calls of the source. Cut-off read from the data, not from the text of the source: active = GI50 up to about 1.1 µM and inactive = higher.
MEASURED PROPERTY: GI50

MOLECULE: CC(=O)c1c(C)n(C)c2c1nnc1ccccc12
GI50: 25.7 µM (inactive)
--
MOLECULE: O=C1C2=Cc3ccccc3CCN2c2ccccc21
GI50: 21.2 µM (inactive)
--
MOLECULE: Nc1nc(N)c(N=O)c(Nc2ccc(I)cc2)n1
GI50: 27.5 µM (inactive)
--
MOLECULE: COc1ccc(-c2c3ccccc3c(-c3ccc(OCCBr)cc3)c3ccccc23)cc1
GI50: > 100 µM (inactive)

Entry CCOC(=O)Cc1ccc(Nc2nc3cc(F)c(F)cc3nc2C(=O)OCC)cc1 , GI50 reported as 69.5 µM (inactive)

molecule C=C1C(=O)OC2/C=C(\C)C3OC3/C=C(/C(=O)OC)C(O)C(OC(=O)C3(C)OC3C)C12 (stereo not given) , GI50 observed: 5.41 µM (inactive)

The recorded GI50 for entry O=C(O)C1CCC(=O)N1C(=O)COc1cc(Cl)c(Cl)cc1Cl (stereo not given) equals > 100 µM (inactive)

The reported GI50 of the molecule N#Cc1nc(/C=C/c2nc(C#N)c(N)o2)oc1N was > 10 µM (inactive)

Field GI50 (entry O=C1C(c2ccccc2)=C(c2ccccc2)C(c2ccc(Cc3ccc(C4=C(c5ccccc5)C(=O)C(c5ccccc5)=C4c4ccccc4)cc3)cc2)=C1c1ccccc1 ) reads > 100 µM (inactive)

Lab note: O=c1c2ccccc2nc(-c2ccccc2)n1NC1OC(CO)C(O)C(O)C1O (stereo not given) gave GI50 of > 100 µM (inactive)
